Item-by-item account of cell scattering score, HPAF-II, 0.111 nM
# experimentalSystem: native human MET on living human cells (human, UniProt P08581 25-1390)
# Sequence (P08581 25-1390): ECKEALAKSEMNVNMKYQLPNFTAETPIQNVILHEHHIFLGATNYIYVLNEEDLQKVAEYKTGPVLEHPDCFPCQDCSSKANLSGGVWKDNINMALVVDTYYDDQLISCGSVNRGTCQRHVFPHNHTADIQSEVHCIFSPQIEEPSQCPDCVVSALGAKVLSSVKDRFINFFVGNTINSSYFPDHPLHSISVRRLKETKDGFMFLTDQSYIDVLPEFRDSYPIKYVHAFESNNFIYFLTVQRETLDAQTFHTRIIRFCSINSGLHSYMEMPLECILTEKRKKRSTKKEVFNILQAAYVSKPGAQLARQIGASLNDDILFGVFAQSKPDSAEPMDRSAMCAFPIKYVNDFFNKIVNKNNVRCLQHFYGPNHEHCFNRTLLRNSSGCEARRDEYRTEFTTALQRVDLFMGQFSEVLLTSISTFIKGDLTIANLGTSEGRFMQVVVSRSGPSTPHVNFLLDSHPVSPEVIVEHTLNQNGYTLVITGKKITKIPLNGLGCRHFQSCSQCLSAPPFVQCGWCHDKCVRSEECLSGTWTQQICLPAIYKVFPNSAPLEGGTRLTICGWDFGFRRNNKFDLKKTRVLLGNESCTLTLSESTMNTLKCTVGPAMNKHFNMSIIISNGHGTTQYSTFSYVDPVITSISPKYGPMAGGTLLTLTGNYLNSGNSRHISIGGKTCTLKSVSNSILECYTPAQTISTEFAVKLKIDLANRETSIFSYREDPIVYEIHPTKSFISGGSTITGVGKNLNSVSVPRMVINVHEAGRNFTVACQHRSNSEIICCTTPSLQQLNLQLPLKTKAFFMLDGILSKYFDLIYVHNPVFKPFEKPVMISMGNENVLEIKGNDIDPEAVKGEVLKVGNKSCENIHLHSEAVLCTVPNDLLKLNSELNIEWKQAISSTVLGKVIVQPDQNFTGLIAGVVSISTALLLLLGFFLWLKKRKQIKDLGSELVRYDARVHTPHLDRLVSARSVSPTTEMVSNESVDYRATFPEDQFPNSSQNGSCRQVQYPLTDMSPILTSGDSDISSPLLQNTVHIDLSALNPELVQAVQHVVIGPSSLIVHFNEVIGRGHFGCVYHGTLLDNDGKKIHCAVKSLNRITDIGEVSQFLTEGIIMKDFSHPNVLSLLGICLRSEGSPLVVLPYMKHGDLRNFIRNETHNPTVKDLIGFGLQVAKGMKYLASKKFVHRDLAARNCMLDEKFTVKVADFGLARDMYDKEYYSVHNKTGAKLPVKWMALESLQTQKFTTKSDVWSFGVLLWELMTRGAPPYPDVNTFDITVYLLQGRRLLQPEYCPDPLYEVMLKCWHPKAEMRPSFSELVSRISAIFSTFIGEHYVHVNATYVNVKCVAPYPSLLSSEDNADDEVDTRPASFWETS
# assayInfo: cell-based or functional assay
Write the number in score 0-4 without appending the unit.

Before answering, review these 3 worked examples.
{"binder": "chimeric llama-human IgG1 mAb 71D6 (antibody, V domains shown) VH: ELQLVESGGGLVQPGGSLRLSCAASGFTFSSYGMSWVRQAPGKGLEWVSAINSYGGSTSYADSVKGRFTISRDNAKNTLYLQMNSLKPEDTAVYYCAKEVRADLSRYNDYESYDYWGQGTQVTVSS VL: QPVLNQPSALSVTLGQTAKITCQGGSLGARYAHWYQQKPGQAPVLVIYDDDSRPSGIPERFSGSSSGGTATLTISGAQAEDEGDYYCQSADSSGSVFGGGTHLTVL", "measurement": 4}
{"binder": "chimeric llama-human IgG1 mAb 71G12 (antibody, V domains shown) VH: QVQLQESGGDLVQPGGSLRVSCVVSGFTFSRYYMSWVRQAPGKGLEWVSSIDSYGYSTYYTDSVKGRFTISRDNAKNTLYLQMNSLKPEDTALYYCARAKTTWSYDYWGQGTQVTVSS VL: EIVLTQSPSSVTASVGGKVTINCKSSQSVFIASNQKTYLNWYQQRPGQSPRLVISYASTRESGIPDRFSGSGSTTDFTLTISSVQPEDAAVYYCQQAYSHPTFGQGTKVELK", "measurement": 0}
{"binder": "chimeric llama-human IgG1 mAb 71G2 (antibody, V domains shown) VH: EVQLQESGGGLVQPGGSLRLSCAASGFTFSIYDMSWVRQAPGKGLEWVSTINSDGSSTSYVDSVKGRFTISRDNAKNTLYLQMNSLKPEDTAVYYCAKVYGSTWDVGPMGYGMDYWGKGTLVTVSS VL: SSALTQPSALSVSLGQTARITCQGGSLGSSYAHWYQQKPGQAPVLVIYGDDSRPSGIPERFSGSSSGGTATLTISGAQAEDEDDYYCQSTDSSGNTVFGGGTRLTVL", "measurement": 4}

// chimeric llama-human IgG1 mAb 76G7 (antibody, V domains shown) VH: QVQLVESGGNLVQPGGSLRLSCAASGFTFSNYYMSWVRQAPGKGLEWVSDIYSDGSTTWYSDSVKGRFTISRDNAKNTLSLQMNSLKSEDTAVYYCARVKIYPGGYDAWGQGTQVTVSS VL: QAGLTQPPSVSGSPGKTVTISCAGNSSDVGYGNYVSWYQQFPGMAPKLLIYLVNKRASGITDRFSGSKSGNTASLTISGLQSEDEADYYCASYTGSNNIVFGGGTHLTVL : cell scattering score, HPAF-II, 0.111 nM value = 0

// chimeric llama-human IgG1 mAb 71G3 (antibody, V domains shown) VH: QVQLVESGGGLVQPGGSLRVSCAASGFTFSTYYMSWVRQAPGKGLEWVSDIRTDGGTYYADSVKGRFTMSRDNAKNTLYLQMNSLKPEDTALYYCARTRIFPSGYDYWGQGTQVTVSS VL: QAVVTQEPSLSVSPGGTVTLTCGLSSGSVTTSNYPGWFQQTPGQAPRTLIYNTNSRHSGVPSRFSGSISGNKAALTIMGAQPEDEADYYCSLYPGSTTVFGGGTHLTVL : cell scattering score, HPAF-II, 0.111 nM value = 3

// chimeric llama-human IgG1 mAb 71C3 (antibody, V domains shown) VH: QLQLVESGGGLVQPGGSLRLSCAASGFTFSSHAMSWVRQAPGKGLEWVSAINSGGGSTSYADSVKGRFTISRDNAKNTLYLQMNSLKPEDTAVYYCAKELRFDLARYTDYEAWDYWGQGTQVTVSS VL: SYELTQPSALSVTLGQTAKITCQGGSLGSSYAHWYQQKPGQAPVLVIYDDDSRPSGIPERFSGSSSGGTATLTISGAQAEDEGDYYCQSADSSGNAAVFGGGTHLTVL : cell scattering score, HPAF-II, 0.111 nM value = 1
